B1: SOAT2 (parent)
chain: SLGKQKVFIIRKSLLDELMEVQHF

variants of: B1; experiment: protein stability index of a GFP-peptide fusion (GPS, HEK-293T) (PSI 1-6); higher = more stable; settings: c terminus: a fixed tail appended;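 further: lentivirally expressed fusions sorted by FACS into six bins by GFP to DsRed ratio, PSI derived from sequencing read proportions per bin multiplied by bin number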
parameter: protein stability index
In your answer, state the number alone without any accompanying words.

Here's what some known entries look like.
sequence_input	protein stability index
SLGKQKVFIIRKSLLDEDMEVQHF [L18D]	2.01
SLGLQKVFIIRKSLLDELMEVQHF [K4L]	2.54
SLGKQKVFIIRKSLLDPLMEVQHF [E17P]	2.21

// moving on: another record for protein stability index
I have this variant here, SLGKQRVFIIRKSLLDELMEVQHF [K6R] , and I need its recorded protein stability index. 2.74
